Value source: the supplement of paper PMC13207355

# Tested on: E34 (patient-derived glioblastoma stem cells of proneural subtype)
# procedure.details: surviving fraction (nuclei count normalised to DMSO); higher = more cells surviving (less toxic)
# assay.conditions: 4.1 nM; exposure time: 72 h
Please use Yes whenever surviving fraction is not below 0.8, and No whenever it is.

{"compound": "COc1cc([C@@H]2c3cc4c(cc3[C@@H](O[C@@H]3O[C@@H]5CO[C@@H](c6cccs6)O[C@H]5[C@H](O)[C@H]3O)[C@H]3COC(=O)[C@H]23)OCO4)cc(OC)c1O [Teniposide]", "category.label": "No"}
{"compound": "CC[n+]1c(/C=C/C=C2/N(C)c3ccccc3C2(C)C)sc2ccccc21", "category.label": "Yes"}
{"compound": "CN(C(=O)CN(CCO)CC(=O)N(C)C(C)(C)Cc1ccccc1)C(C)(C)Cc1ccccc1 [Oxethazaine]", "category.label": "Yes"}
{"compound": "CC(C)C[C@H](NC(=O)CNC(=O)c1cc(Cl)ccc1Cl)B(O)O [Ixazomib]", "category.label": "No"}
{"compound": "Nc1nc2n[nH]nc2c(=O)[nH]1 [Azaguanine-8]", "category.label": "Yes"}
{"compound": "S=c1[nH]cnc2nc[nH]c12 [Mercaptopurine]", "category.label": "Yes"}
{"compound": "OC[C@H]1NC[C@H](O)[C@@H](O)[C@@H]1O [1-Deoxynojirimycin]", "category.label": "Yes"}

* * *

# System: E31 (patient-derived glioblastoma stem cells of proneural subtype)
# procedure.details: surviving fraction (nuclei count normalised to DMSO); higher = more cells surviving (less toxic)
# assay.conditions: 111.1 nM; exposure time: 72 h
Where a name gives a salt, the structure may show the parent alone.
Each entry below carries its recorded surviving fraction.

{"compound": "COc1cc2c(cc1O)CC[C@@H]1[C@@H]2CC[C@]2(C)[C@@H](O)CC[C@@H]12", "surviving fraction": 0.862}
{"compound": "Nc1ccn([C@@H]2O[C@H](CO)[C@@H](O)C2(F)F)c(=O)n1 [Gemcitabine HCl]", "surviving fraction": 0.229}
{"compound": "O=c1[nH]c(=O)n([C@H]2C[C@H](O)[C@@H](CO)O2)cc1I", "surviving fraction": 1.15}
{"compound": "Cc1ccc(C(=O)N(CCCN)[C@@H](c2oc3cc(Cl)ccc3c(=O)c2Cc2ccccc2)C(C)C)cc1", "surviving fraction": 0.126}
{"compound": "CCCCCCCCCCCCCCCC[N+](C)(C)CCN(Cc1ccc(OC)cc1)c1ncccn1 [Thonzonium bromide]", "surviving fraction": 0.966}
{"compound": "C[C@@H](O[C@H]1OCCN(Cc2n[nH]c(=O)[nH]2)[C@H]1c1ccc(F)cc1)c1cc(C(F)(F)F)cc(C(F)(F)F)c1 [Aprepitant]", "surviving fraction": 0.981}
{"compound": "Cc1ccc2c(c1)C1(CCN(CCc3nc(-c4ccccc4)oc3C)CC1)OC(=O)N2", "surviving fraction": 0.979}
{"compound": "S=c1[nH]cnc2nc[nH]c12", "surviving fraction": 1.08}
{"compound": "COC(=O)C[C@](O)(CCCC(C)(C)O)C(=O)O[C@@H]1C(OC)=C[C@]23CCCN2CCc2cc4c(cc2[C@H]13)OCO4", "surviving fraction": 0.218}
{"compound": "COc1nc(C)nc(Cl)c1NC1=NCCN1", "surviving fraction": 1.15}
{"compound": "CCn1cc(C(=O)O)c(=O)c2cc(F)c(N3CCNCC3)nc21", "surviving fraction": 0.95}
{"compound": "CCC(C)(C)c1ccc(CC(C)CN2C[C@@H](C)O[C@@H](C)C2)cc1 (some centres not stated) [Amorolfine hydrochloride]", "surviving fraction": 0.983}
{"compound": "OCCN1CCN(CCCN2c3ccccc3Sc3ccc(Cl)cc32)CC1", "surviving fraction": 1.14}
{"compound": "COc1cc([C@@H]2c3cc4c(cc3[C@H](O)[C@H]3COC(=O)[C@H]23)OCO4)cc(OC)c1OC", "surviving fraction": 0.0446}
{"compound": "COC(=O)C1=C(C)NC(C)=C(C(=O)OCC(C)C)C1c1ccccc1[N+](=O)[O-] (configuration not stated)", "surviving fraction": 0.892}
{"compound": "CC(C)C[C@@H](C(=O)N[C@H](C(=O)OC1CCCC1)c1ccccc1)[C@H](O)C(=O)NO", "surviving fraction": 0.861}
{"compound": "Clc1ccc(COC(Cn2ccnc2)c2ccc(Cl)cc2Cl)c(Cl)c1 (configuration not stated)", "surviving fraction": 0.936}

* * *

# Test system: E28 (patient-derived glioblastoma stem cells of classical subtype)
# procedure.details: phenotypic distance (Euclidean, principal components) from DMSO controls (arbitrary units); higher = stronger morphological change
# assay.conditions: 333.3 nM; exposure time: 72 h
Counter-ions that a name gives are not always drawn.

{"compound": "CC(=O)CC(c1ccc([N+](=O)[O-])cc1)c1c(O)c2ccccc2oc1=O (stereo not drawn) [Acenocoumarol]", "phenotypic distance": 0.562}
{"compound": "COc1cccc2c1C(=O)c1c(O)c3c(c(O)c1C2=O)C[C@@](O)(C(=O)CO)C[C@@H]3O[C@H]1C[C@H](N)[C@H](O)[C@H](C)O1 [Doxorubicin hydrochloride]", "phenotypic distance": 3.16}
{"compound": "CC[C@@]1(O)C(=O)OCc2c1cc1n(c2=O)Cc2cc3c(CN(C)C)c(O)ccc3nc2-1 [Topotecan]", "phenotypic distance": 3.55}
{"compound": "Cc1c(-c2ccc(-c3ccccc3F)cc2)nc2ccc(F)cc2c1C(=O)O [Brequinar sodium salt hydrate]", "phenotypic distance": 1.2}
{"compound": "CC(C)NCC(O)c1cc(O)cc(O)c1 (stereo not drawn) [Metaproterenol sulfate, orciprenaline sulfate]", "phenotypic distance": 1.06}
{"compound": "O=C(/C=C\\n1cnc(-c2cc(C(F)(F)F)cc(C(F)(F)F)c2)n1)NNc1cnccn1 [Selinexor]", "phenotypic distance": 2.86}
{"compound": "CCCSc1ccc2[nH]c(NC(=O)OC)nc2c1 [Albendazole]", "phenotypic distance": 2.28}
{"compound": "Cc1ccc2c(c1)C1(CCN(CCc3nc(-c4ccccc4)oc3C)CC1)OC(=O)N2", "phenotypic distance": 0.695}

* * *

# System: FT3469 (normal neural stem cell line)
# procedure.details: phenotypic distance (Euclidean, principal components) from DMSO controls (arbitrary units); higher = stronger morphological change
# assay.conditions: 333.3 nM; exposure time: 72 h
Counter-ions that a name gives are not always drawn.
Please use yes (1) whenever phenotypic distance is not below 0.8, and no (0) whenever it is.

{"molecule": "COC(=O)Nc1nc2cc(C(=O)c3ccccc3)ccc2[nH]1 [Mebendazole]", "category.label": "yes (1)"}
{"molecule": "COc1cccc2c1C(=O)c1c(O)c3c(c(O)c1C2=O)C[C@@](O)(C(=O)CO)C[C@@H]3O[C@H]1C[C@H](N)[C@H](O[C@@H]2CCCCO2)[C@H](C)O1 [Pirarubicin]", "category.label": "yes (1)"}
{"molecule": "CN(c1nccc(=O)[nH]1)C1CCN(c2nc3ccccc3n2Cc2ccc(F)cc2)CC1 [Mizolastine]", "category.label": "no (0)"}
{"molecule": "CNCCc1ccccn1 [Betahistine mesylate]", "category.label": "yes (1)"}
{"molecule": "Cc1nc2ccccn2c(=O)c1CCN1CCC(C(=O)c2ccc(F)cc2)CC1 [Pirenperone]", "category.label": "no (0)"}
{"molecule": "COc1cccc2c(NCc3ccccc3)nc(-n3c(N)nc4ccccc43)nc12 [ML240]", "category.label": "no (0)"}
{"molecule": "C#C[C@]1(O)CC[C@H]2[C@@H]3CCC4=CCCC[C@@H]4[C@H]3CC[C@@]21C [Lynestrenol]", "category.label": "no (0)"}
{"molecule": "COc1cc(OC)c(C(=O)CCCN2CCCC2)c(OC)c1 [Buflomedil hydrochloride]", "category.label": "no (0)"}
{"molecule": "CC1CNc2c(cccc2S(=O)(=O)N[C@@H](CCCNC(=N)N)C(=O)N2CC[C@@H](C)C[C@@H]2C(=O)O)C1 (stereo partly specified) [Argatroban]", "category.label": "no (0)"}
{"molecule": "CC(C)C[C@H](NC(=O)CNC(=O)c1cc(Cl)ccc1Cl)B1OC(=O)C(CC(=O)O)(CC(=O)O)O1 [MLN9708]", "category.label": "yes (1)"}
{"molecule": "CC[C@@]1(O)C(=O)OCc2c1cc1n(c2=O)Cc2cc3c(CN(C)C)c(O)ccc3nc2-1 [Topotecan]", "category.label": "yes (1)"}
{"molecule": "CC(C)NCC(O)c1cc(O)cc(O)c1 (stereo unspecified) [Metaproterenol sulfate, orciprenaline sulfate]", "category.label": "yes (1)"}
{"molecule": "CCN1CCN(C(=O)Cc2ccc(Nc3ncc(F)c(Nc4ccc(C(=O)Nc5ccccc5Cl)cc4)n3)cc2)CC1 [Aurora-A Inhibitor I]", "category.label": "yes (1)"}
{"molecule": "CCCSc1ccc2[nH]c(NC(=O)OC)nc2c1 [Albendazole]", "category.label": "yes (1)"}
{"molecule": "O=C1c2c(O)ccc(O)c2C(=O)c2c(NCCNCCO)ccc(NCCNCCO)c21 [Mitoxantrone]", "category.label": "yes (1)"}
{"molecule": "Cc1cc(C)c(CN2CCc3c(Cl)cc(-c4c(C)noc4C)c(Cl)c3C2=O)c(=O)[nH]1", "category.label": "yes (1)"}
